Provenance of the data: paper PMC8374946

Biological target: human TRPV1 channel (Homo sapiens, UniProt Q8NER1)
Sequence (Q8NER1 whole entry): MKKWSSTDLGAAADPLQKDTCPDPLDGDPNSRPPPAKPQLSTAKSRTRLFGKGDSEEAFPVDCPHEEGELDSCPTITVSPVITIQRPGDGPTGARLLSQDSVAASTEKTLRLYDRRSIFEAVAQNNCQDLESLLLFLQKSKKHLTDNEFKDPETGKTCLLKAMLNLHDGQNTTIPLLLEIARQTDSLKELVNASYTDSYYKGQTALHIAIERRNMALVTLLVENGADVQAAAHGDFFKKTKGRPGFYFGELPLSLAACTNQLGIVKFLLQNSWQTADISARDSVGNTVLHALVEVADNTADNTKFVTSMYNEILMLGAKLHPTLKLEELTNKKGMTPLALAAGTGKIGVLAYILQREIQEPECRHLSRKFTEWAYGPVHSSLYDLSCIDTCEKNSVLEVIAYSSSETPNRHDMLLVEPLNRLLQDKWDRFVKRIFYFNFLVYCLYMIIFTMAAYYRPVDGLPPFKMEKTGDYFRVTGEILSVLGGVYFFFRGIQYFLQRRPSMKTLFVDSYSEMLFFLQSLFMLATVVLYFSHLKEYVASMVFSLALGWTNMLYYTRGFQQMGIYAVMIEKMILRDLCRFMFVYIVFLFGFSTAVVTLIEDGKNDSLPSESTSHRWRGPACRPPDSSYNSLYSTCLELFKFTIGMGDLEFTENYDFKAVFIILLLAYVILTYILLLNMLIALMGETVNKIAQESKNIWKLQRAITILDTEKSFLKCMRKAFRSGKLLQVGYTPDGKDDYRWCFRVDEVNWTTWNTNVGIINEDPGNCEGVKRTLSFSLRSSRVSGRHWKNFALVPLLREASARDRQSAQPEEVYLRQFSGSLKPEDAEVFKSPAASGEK
Experiment: TRPV1 channel Ca2+ fluorescent
Type: cell-based
Conditions: normalized to signal with 1 µM capsaicin; HEK293T-TRPV1 cells
Reported TRPV1 channel Ca2+ signal Emax values are given for each entry in this list.
Reply briefly: the number, and no unit.

Below: 3 compounds and their reported TRPV1 channel Ca2+ signal Emax.
Lookup: Sample `CCCCC/C=C\C/C=C\C/C=C\C/C=C\CCCC(=O)NCCO` — what was its TRPV1 channel Ca2+ signal Emax?
Found: 0.35

Lookup: Sample CN1CCCCC1Cn1cc(C(=O)c2cccc3ccccc23)c2ccccc21 (stereo not shown) — what was its TRPV1 channel Ca2+ signal Emax?
Found: 0.26

Lookup: Sample `CC1(C)C(C(=O)c2cn(CCCCCF)c3ccccc23)C1(C)C` — what was its TRPV1 channel Ca2+ signal Emax?
Found: 0.39

New cases:
Lookup: Sample `CCCCCn1cc(C(=O)C2C(C)(C)C2(C)C)c2ccccc21` — what was its TRPV1 channel Ca2+ signal Emax?
Found: 0.23
